# study.system: human β3 adrenergic receptor (Homo sapiens, UniProt P13945)
# Construct: expressed in transfected cells
# Sequence (P13945 whole entry): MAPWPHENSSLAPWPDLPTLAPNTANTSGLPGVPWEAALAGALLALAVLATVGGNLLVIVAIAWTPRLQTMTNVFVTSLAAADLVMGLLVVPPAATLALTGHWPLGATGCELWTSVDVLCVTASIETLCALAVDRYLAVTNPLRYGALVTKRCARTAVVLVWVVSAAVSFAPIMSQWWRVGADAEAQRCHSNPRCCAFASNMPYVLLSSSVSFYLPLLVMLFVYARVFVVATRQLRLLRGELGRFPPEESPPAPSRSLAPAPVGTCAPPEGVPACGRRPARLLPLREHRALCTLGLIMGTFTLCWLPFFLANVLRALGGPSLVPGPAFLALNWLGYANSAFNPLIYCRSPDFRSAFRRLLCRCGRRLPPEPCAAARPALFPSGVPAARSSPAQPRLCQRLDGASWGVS
# measurement.protocol: whole cell receptor coupled c-AMP assay (Emax relative to isoproterenol)
# Format: cell-based
# protocol.conditions: % intrinsic activity: maximal response divided by isoproterenol maximal response times 100; transfected CHO cells; average of at least 3 runs
# Method: […] Cells from each of the above cell lines are resuspended and added (20,000/well) to a 96-well plate. […] After halting the incubation with quench buffer (50 mM Na Acetate, 0.25% Triton X-100, pH 5.8), the c-AMP level is quantified by scintillation proximity assay (SPA) using a modification of the commercially available c-AMP kit (Amersham, Arlington Heights, Ill.) with rabbit anti-cAMP antibody (ICN Biomedicals, Aurora, Ohio) for the kit. […]
parameter.measured: Emax (%) ± SEM

Field: example entries. Status: answers known.
The compound listed as CC(C)(Cc1c[nH]c2c(-c3ccc(C(F)(F)F)cc3C(F)(F)F)cccc12)NC[C@H](O)COc1ccccc1-c1cccs1 [Example 110] has a reported Emax (%) ± SEM of 72.7

Lab note: CC(C)(Cc1c[nH]c2ccccc12)NC[C@H](O)COc1ccccc1-c1ccc(C#N)s1.Cl [Example 11] gave Emax (%) ± SEM of 69.0

[P] CC(C)(Cc1c[nH]c2ccccc12)NC[C@H](O)COc1cccnc1-c1cccs1 [Example 125]
[Q] CC(C)(Cc1c[nH]c2c(-c3ccc(C(F)(F)F)cc3C(F)(F)F)cccc12)NC[C@H](O)COc1ccccc1-c1ccon1 [Example 111]
[R] COC(=O)c1ccc(-c2ccccc2OC[C@@H](O)CNC(C)(C)Cc2c[nH]c3ccccc23)s1 [Example 124]
(Q) Your job: order these 3 records by Emax (%) ± SEM, ascending. Form entry: labels listed in requested order.
(A) R, P, Q
(R: 36.1%, P: 59.2%, Q: 86.0%)
